Assay: Equilibrium solubility of amorphous form sample in different pH media
Assay type: physicochemical
Details: 0.01 N HCl, simulated gastric fluid, thermodynamic from solid; 0.01 NHCl, final pH 2.01, 37° C., 24 h
Measured attribute: solubility at 24 h (µg/mL)

compound_smiles=C[C@@]12CCCCC[C@@H](Cc3c(F)cc(OC(=O)CCCCCCCCC(=O)Oc4cc(F)c5c(c4)[C@@]4(C)CCCCC[C@@H](C5)[C@@H]4N)cc31)[C@@H]2N measured_attribute="solubility at 24 h" quantitative_readout=1630

---

Assay: Equilibrium solubility of amorphous form sample in different pH media
Assay type: physicochemical
Conditions: aqueous buffer, thermodynamic from solid; pH 4.5 buffer solution (acetate), final pH 4.48, 37° C., 24 h
Measured attribute: solubility at 24 h

compound_smiles=C[C@@]12CCCCC[C@@H](Cc3c(F)cc(OC(=O)CCCCCCCCC(=O)Oc4cc(F)c5c(c4)[C@@]4(C)CCCCC[C@@H](C5)[C@@H]4N)cc31)[C@@H]2N measured_attribute="solubility at 24 h" result="19.6 mg/mL"

---

Test: Equilibrium solubility of amorphous form sample in different pH media
Assay type: physicochemical
Settings: aqueous buffer, thermodynamic from solid; pH 6.0 buffer solution (phosphate), final pH 5.89, 37° C., 24 h
Measured attribute: solubility at 24 h (µg/mL)

compound_smiles=C[C@@]12CCCCC[C@@H](Cc3c(F)cc(OC(=O)CCCCCCCCC(=O)Oc4cc(F)c5c(c4)[C@@]4(C)CCCCC[C@@H](C5)[C@@H]4N)cc31)[C@@H]2N quantitative_readout=13

---

Test: Equilibrium solubility of amorphous form sample in different pH media
Format: physicochemical
Details: aqueous buffer, thermodynamic from solid; pH 6.8 buffer solution (phosphate), final pH 6.75, 37° C., 24 h
Measured attribute: solubility at 24 h

compound_smiles=C[C@@]12CCCCC[C@@H](Cc3c(F)cc(OC(=O)CCCCCCCCC(=O)Oc4cc(F)c5c(c4)[C@@]4(C)CCCCC[C@@H](C5)[C@@H]4N)cc31)[C@@H]2N measured_attribute="solubility at 24 h" result="3 µg/mL"

---

Experiment: Equilibrium solubility of amorphous form sample in different pH media
Format: physicochemical
Settings: aqueous buffer, thermodynamic from solid; pH 3.8 buffer solution (acetate), final pH 3.68, 37° C., 24 h
Description: An equilibrium solubility of an amorphous form sample in pH 1.0/2.0 (hydrochloric acid solution), pH 3.8/4.5/5.5 (acetate buffer solution), pH 6.0/6.8/7.4 (phosphate buffer solution) and water was detected (prepared according to the Technical Guiding Principles for Dissolution Rate Test of Ordinary Oral Solid Preparations of Chinese Pharmacopoeia). […]
Measured attribute: solubility at 24 h (mg/mL)

compound_smiles=C[C@@]12CCCCC[C@@H](Cc3c(F)cc(OC(=O)CCCCCCCCC(=O)Oc4cc(F)c5c(c4)[C@@]4(C)CCCCC[C@@H](C5)[C@@H]4N)cc31)[C@@H]2N quantitative_readout=15.1

---

Experiment: Equilibrium solubility of amorphous form sample in different pH media
Assay type: physicochemical
Settings: pure water, thermodynamic from solid; Water, final pH 4.28, 37° C., 24 h
Measured attribute: solubility at 24 h (mg/mL)

compound_smiles=C[C@@]12CCCCC[C@@H](Cc3c(F)cc(OC(=O)CCCCCCCCC(=O)Oc4cc(F)c5c(c4)[C@@]4(C)CCCCC[C@@H](C5)[C@@H]4N)cc31)[C@@H]2N measurement_unit=mg/mL quantitative_readout=13.5
